- system tested: T1, Axl protein (human, UniProt P30530 26-451)
- T1 construct: extracellular domain; also called human Axl; hAxl
- T1 sequence (looked up): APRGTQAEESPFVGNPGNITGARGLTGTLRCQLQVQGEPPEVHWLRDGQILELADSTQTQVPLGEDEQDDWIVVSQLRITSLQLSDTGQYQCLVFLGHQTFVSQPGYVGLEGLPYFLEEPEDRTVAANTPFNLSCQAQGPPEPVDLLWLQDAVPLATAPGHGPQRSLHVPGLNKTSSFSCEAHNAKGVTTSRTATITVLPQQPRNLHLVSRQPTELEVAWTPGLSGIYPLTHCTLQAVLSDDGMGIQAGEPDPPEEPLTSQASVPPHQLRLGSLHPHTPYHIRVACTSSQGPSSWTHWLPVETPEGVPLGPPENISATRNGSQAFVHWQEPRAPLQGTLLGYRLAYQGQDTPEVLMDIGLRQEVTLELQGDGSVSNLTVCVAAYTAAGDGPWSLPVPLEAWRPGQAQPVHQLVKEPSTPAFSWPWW
- protocol: ELISA, 1:3 dilution, pH 6.0 over pH 7.4
measured endpoint: Affinity ELISA CPE mutant ratio (1:3, pH 6.0/7.4) (ratio)

{"binder": "HC-W110R (antibody, V domains shown) VH: EVQLVQSGAEVKKPGATVKISCKVSGYSFTGHTMNWIRQPPGKGLEWIGLIKPSNGGTSYNQKFKGRVTISADKSISTAYLQWSSLKASDTAMYYCAHGHYESYFAMDYRGQGTLVTVSS VL: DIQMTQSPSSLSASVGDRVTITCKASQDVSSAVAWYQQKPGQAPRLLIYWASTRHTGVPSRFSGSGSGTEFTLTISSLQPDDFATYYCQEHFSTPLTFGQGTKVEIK", "measured value": 5.99}
{"binder": "HC-N035I (antibody, V domains shown) VH: EVQLVQSGAEVKKPGATVKISCKVSGYSFTGHTMIWIRQPPGKGLEWIGLIKPSNGGTSYNQKFKGRVTISADKSISTAYLQWSSLKASDTAMYYCAHGHYESYFAMDYWGQGTLVTVSS VL: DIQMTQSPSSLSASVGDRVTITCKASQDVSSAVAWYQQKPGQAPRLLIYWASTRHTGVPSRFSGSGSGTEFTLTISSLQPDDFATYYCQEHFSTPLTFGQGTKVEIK", "measured value": 2.81}
